Data origin, for the record: patent US10322118B2

Target: Cif (Pseudomonas aeruginosa (strain UCBPP-PA14), UniProt A0A0H2ZD27)
Sequence (A0A0H2ZD27 25-319 limits assumed): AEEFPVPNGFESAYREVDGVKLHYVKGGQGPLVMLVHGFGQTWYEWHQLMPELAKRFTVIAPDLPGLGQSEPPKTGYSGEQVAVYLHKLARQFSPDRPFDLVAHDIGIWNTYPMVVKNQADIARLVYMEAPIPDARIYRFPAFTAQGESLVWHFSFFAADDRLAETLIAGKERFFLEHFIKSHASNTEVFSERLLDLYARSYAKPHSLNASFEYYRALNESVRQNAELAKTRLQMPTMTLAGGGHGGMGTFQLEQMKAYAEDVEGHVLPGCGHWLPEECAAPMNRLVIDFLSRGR
Assay: Secondary screen (sextuplicate) with fluorogenic substrate CMNGC
Assay type: biochemical
Conditions: read-out: % Inhibition, plate 5
Counter-ions that a name gives are not always drawn.
The compounds listed here are annotated with their inhibition at 10 µM.
property measured: inhibition at 10 µM

compound="C[N+](C)(C)CC(=O)O [Betaine hydrochloride]" property_measured="inhibition at 10 µM" value_observed=20%
compound="NCC(O)c1ccc(O)cc1 (stereo not drawn) [Octopamine hydrochloride]" property_measured="inhibition at 10 µM" value_observed=18%
compound="Cc1cccc(Nc2ccccc2C(=O)O)c1C [Mefenamic acid]" property_measured="inhibition at 10 µM" value_observed=20%

###

Molecular target: Cif (Pseudomonas aeruginosa (strain UCBPP-PA14), UniProt A0A0H2ZD27)
Assay: Secondary screen (sextuplicate) with fluorogenic substrate CMNGC
Type: biochemical
Details: read-out: % Inhibition, Mean ± SD
Counter-ions that a name gives are not always drawn.
The compounds listed here are annotated with their inhibition at 10 µM.
property measured: inhibition at 10 µM

compound="CCCCCCCCCCCCCCOS(=O)(=O)O [Sodium tetradecyl sulfate]" value_observed=9%
compound="Cc1cccc(Nc2ccccc2C(=O)O)c1C [Mefenamic acid]" value_observed=16%
compound="Nc1nc(N)c2nc(-c3ccccc3)c(N)nc2n1 [Triamterene]" value_observed=19%
compound="CC(=O)[C@@]1(O)CC[C@H]2[C@@H]3C[C@H](C)C4=CC(=O)C=C[C@]4(C)[C@@]3(F)[C@@H](O)C[C@@]21C [Fluorometholone]" value_observed=18%
compound="C=CCc1ccc(O)c(OC)c1 [Eugenol]" value_observed=3%

###

Molecular target: Cif (Pseudomonas aeruginosa (strain UCBPP-PA14), UniProt A0A0H2ZD27)
Assay: Secondary screen (sextuplicate) with fluorogenic substrate CMNGC;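 further: purified enzyme assay in 96-well plates, 200 µL volume, fluorescence recorded each minute across a 60 min reaction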
Assay type: biochemical
Conditions: secondary screen, 10 μM, plate number 3
The molecules listed here are annotated with their % Inhibition, plate 3.
property measured: % Inhibition, plate 3 (%)

molecule="CC(O)CN1CCN(CC(=O)[O-])CCN(CC(=O)[O-])CCN(CC(=O)[O-])CC1.[Gd+3] (centres unmarked)" target_system="Cif (Pseudomonas aeruginosa (strain UCBPP-PA14), UniProt A0A0H2ZD27)" value_observed=10
molecule="CCCCCCCCCCCCCCCC[N+](C)(C)C.[Br-] [Cetrimonium bromide]" target_system="Cif (Pseudomonas aeruginosa (strain UCBPP-PA14), UniProt A0A0H2ZD27)" value_observed=−4
molecule="CC(=O)[C@H]1CC[C@H]2[C@@H]3CC=C4C[C@@H](OC(=O)CCC(=O)O)CC[C@]4(C)[C@H]3CC[C@]12C [Pregnenolone succinate]" target_system="Cif (Pseudomonas aeruginosa (strain UCBPP-PA14), UniProt A0A0H2ZD27)" value_observed=8
molecule=C[C@@H]1C[C@H]2[C@@H]3CCC4=CC(=O)C=C[C@]4(C)[C@@]3(F)[C@@H](O)C[C@]2(C)[C@H]1C(=O)CO target_system="Cif (Pseudomonas aeruginosa (strain UCBPP-PA14), UniProt A0A0H2ZD27)" value_observed=34
molecule="CC(=O)[C@@]12O[C@](C)(c3ccccc3)O[C@@H]1C[C@H]1[C@@H]3CCC4=CC(=O)CC[C@]4(C)[C@H]3CC[C@@]12C [Algestone acetophenide]" target_system="Cif (Pseudomonas aeruginosa (strain UCBPP-PA14), UniProt A0A0H2ZD27)" value_observed=0
